Biological target: T1, US28 of HCMV strain DB fused to a C-terminal 6His tag (human cytomegalovirus (HCMV) strain DB, UniProt P69332 1-354)
T1 chain: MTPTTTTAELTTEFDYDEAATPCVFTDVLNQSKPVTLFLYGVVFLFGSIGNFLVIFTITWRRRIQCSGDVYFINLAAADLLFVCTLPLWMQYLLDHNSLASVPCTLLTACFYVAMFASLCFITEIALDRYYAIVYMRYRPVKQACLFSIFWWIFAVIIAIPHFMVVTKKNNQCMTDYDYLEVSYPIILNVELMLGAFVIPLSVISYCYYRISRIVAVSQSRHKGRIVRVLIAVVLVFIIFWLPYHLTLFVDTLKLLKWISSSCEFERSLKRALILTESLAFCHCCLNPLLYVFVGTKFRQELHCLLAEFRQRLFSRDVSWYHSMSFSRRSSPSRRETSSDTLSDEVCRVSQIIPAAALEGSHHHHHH
Assay: flow cytometry, CHO-US28 against control CHO cells
Property name: binding specificity comparative to the specificity displayed by VUN100 (fold)

[
  {
    "Binder": "US28-13-5G6-1D3 (antibody, V domains shown, also called US28-13-5G6-1D3 rAb; 13-5G6-1D3 clone) VH: EVKLVESGGGLVQPGGSLRLACATSGFTFTDYYMSWVRQPPGKALEWLGFIRSKANGYTTEYSASVKGRFTISRDNSQSILYLQMNTLRSEDSATYYCARDERRTAWLAYWGQGTLVTVSA VL: DVLMTQTPLSLPVSLGDQASISCRSSQSIVHSNGNTYLDWYLQKPGQSPKLLIYKVSNRFSGVPDRFSGSGSGTDFTLKISRVEAEDLGVYYCFQGSHVPTWTFGGGTKLEIKR",
    "Value unit": "fold",
    "Quantitative result": 1.65
  },
  {
    "Binder": "US28-13-1H3-1A10 (antibody, mouse IgG1, kappa, V domains shown, also called 14-1H3-1A10) VH: EVKLVESGGVLVKPGGSLKFSCAASGFTLSSHALSWVRQTPEKRLEWVASISSRGRTYYPDSVKGRFTVSRDNARNILYLQVSSLRSEDTAMYYCTRGGTHYSYGNGFDFWGQGTTLTVSS VL: QIVLTQSPAIMSASPGEKVTMTCSVSSSVSYMHWYQQKSGTSPKRWIYDTSKLASGVPARFSGSGSGTSYSLTISTMEAEDAATYYCQQWSNNPPITFGAGTKLELKR",
    "Value unit": "fold",
    "Quantitative result": 2.29
  },
  {
    "Binder": "US28-13-1C10-1C10 (antibody, mouse IgG1, kappa, V domains shown) VH: EVKLVESGGVLVKPGGSLKFSCAASGFTFSSHALSWVRQTPEKRLEWVASISSRGRTYYPDSVKGRFTVSRDNARNILYLQVSSLRSEDTAMYYCTRGGTHYSYGNGFDFWGQGTTLTVSS VL: QIVLTQSPAIMSASPGEKVTMTCSVSSSVSYMHWYQQKSGTSPKRWIYDTSKLASGVPARFSGSGSGTSYSLTISTMEAEDAATYYCQQWSNNPPITFGAGTKLELKR",
    "Value unit": "fold",
    "Quantitative result": 1.74
  }
]
